# credit: patent US7247634B2

# Test system: Enterococcus faecalis ATCC29212
# measurement.notes: MIC, microbroth dilution (NCCLS)
# Type: cell-based
# condition.notes: rifS strain, BHI Broth, 37° C., read-out: Antimicrobial activity (MIC)
The entries below are paired with their reported MIC.
readout: MIC

INSERT INTO assay_data (compound, target_or_test_system, result) VALUES
  ('CO[C@H]1/C=C/O[C@@]2(C)Oc3c(C)c(O)c4c(c3C2=O)C(=O)C(N2CCC(CCCC3CCN(c5nc6c(cc5F)c(=O)c(C(=O)O)cn6-c5ccc(F)cc5F)CC3)CC2)=C(NC(=O)/C(C)=C\C=C\[C@H](C)[C@H](O)[C@@H](C)[C@@H](O)[C@@H](C)[C@H](OC(C)=O)[C@@H]1C)C4=O [Example 6]', 'Enterococcus faecalis ATCC29212', '2 to 32 µg/mL'),
  ('CO[C@H]1/C=C/O[C@@]2(C)Oc3c(C)c(O)c4c(c3C2=O)C(=O)C(N2CCC(NCC3CCN(c5nc6c(cc5F)c(=O)c(C(=O)O)cn6-c5ccc(F)cc5F)C3)CC2)=C(NC(=O)/C(C)=C\C=C\[C@H](C)[C@H](O)[C@@H](C)[C@@H](O)[C@@H](C)[C@H](OC(C)=O)[C@@H]1C)C4=O (mixture of isomers) [Example 37]', 'Enterococcus faecalis ATCC29212', '2 to 32 µg/mL'),
  ('CO[C@H]1/C=C/O[C@@]2(C)Oc3c(C)c(O)c4c(O)c(c(CN[C@H]5CCN(c6cc7c(cc6F)c(=O)c(C(=O)O)cn7C6CC6)C5)c(O)c4c3C2=O)NC(=O)/C(C)=C\C=C\[C@H](C)[C@H](O)[C@@H](C)[C@@H](O)[C@@H](C)[C@H](OC(C)=O)[C@@H]1C [Example 16]', 'Enterococcus faecalis ATCC29212', '2 to 32 µg/mL');

---

# System: Enterococcus faecalis ATCC29212
# measurement.notes: MIC, microbroth dilution (NCCLS)
# Type: cell-based
# condition.notes: rifS strain, BHI Broth, 37° C., read-out: Antimicrobial activity (MIC)
readout: MIC

INSERT INTO results (smiles_string, target_or_test_system, result) VALUES
  ('COc1c(N2CCN(C(=O)C3CN(C4=C5NC(=O)/C(C)=C\C=C\[C@H](C)[C@H](O)[C@@H](C)[C@@H](O)[C@@H](C)[C@H](OC(C)=O)[C@H](C)[C@@H](OC)/C=C/O[C@@]6(C)Oc7c(C)c(O)c(c(c7C6=O)C4=O)C5=O)C3)CC2)c(F)cc2c(=O)c(C(=O)O)cn(C3CC3)c12', 'Enterococcus faecalis ATCC29212', '2 to 32 µg/mL'),
  ('CO[C@H]1/C=C/O[C@@]2(C)Oc3c(C)c(O)c4c(c3C2=O)C(=O)C(N2CCN(c3nc5c(cc3F)c(=O)c(C(=O)O)cn5-c3ccc(F)cc3F)CC2)=C(NC(=O)/C(C)=C\C=C\[C@H](C)[C@H](O)[C@@H](C)[C@@H](O)[C@@H](C)[C@H](OC(C)=O)[C@@H]1C)C4=O', 'Enterococcus faecalis ATCC29212', '2 to 32 µg/mL');

---

# Tested on: Enterococcus faecalis ATCC29212
# measurement.notes: MIC, microbroth dilution (NCCLS)
# Assay type: cell-based
# condition.notes: rifS strain, BHI Broth, 37° C., read-out: Antimicrobial activity (MIC)
readout: MIC

INSERT INTO assay_data (compound, readout, result) VALUES
  ('CO[C@H]1/C=C/O[C@@]2(C)Oc3c(C)c(O)c4c(c3C2=O)C(=O)C(N2CCCC3(CCN(c5nc6c(cc5F)c(=O)c(C(=O)O)cn6-c5ccc(F)cc5F)C3)C2)=C(NC(=O)/C(C)=C\C=C\[C@H](C)[C@H](O)[C@@H](C)[C@@H](O)[C@@H](C)[C@H](OC(C)=O)[C@@H]1C)C4=O (stereo partly shown)', 'MIC', '2 to 32 µg/mL'),
  ('COc1c(N2CCN(C(=O)C3CCN(C4=C5NC(=O)/C(C)=C\C=C\[C@H](C)[C@H](O)[C@@H](C)[C@@H](O)[C@@H](C)[C@H](OC(C)=O)[C@H](C)[C@@H](OC)/C=C/O[C@@]6(C)Oc7c(C)c(O)c(c(c7C6=O)C4=O)C5=O)CC3)CC2)c(F)cc2c(=O)c(C(=O)O)cn(C3CC3)c12', 'MIC', '2 to 32 µg/mL'),
  ('CO[C@H]1/C=C/O[C@@]2(C)Oc3c(C)c(O)c4c(c3C2=O)C(=O)C(N2CC(C(=O)N3CCN(c5ccc(N6C[C@H](CNC(C)=O)OC6=O)cc5F)CC3)C2)=C(NC(=O)/C(C)=C\C=C\[C@H](C)[C@H](O)[C@@H](C)[C@@H](O)[C@@H](C)[C@H](OC(C)=O)[C@@H]1C)C4=O', 'MIC', '2 to 32 µg/mL'),
  ('CO[C@H]1/C=C/O[C@@]2(C)Oc3c(C)c(O)c4c(O)c(c(CNC5CCN(c6c(F)cc7c(=O)c(C(=O)O)cn(C8CC8)c7c6Cl)C5)c(O)c4c3C2=O)NC(=O)/C(C)=C\C=C\[C@H](C)[C@H](O)[C@@H](C)[C@@H](O)[C@@H](C)[C@H](OC(C)=O)[C@@H]1C (mixture of isomers)', 'MIC', '2 to 32 µg/mL'),
  ('CO[C@H]1/C=C/O[C@@]2(C)Oc3c(C)c(O)c4c(c3C2=O)C(=O)C(N2CCN(c3nc5c(cc3F)c(=O)c(C(=O)O)cn5C3CC3)CC2)=C(NC(=O)/C(C)=C\C=C\[C@H](C)[C@H](O)[C@@H](C)[C@@H](O)[C@@H](C)[C@H](OC(C)=O)[C@@H]1C)C4=O', 'MIC', '2 to 32 µg/mL'),
  ('COc1c(N2CCN(C3=C4NC(=O)/C(C)=C\C=C\[C@H](C)[C@H](O)[C@@H](C)[C@@H](O)[C@@H](C)[C@H](OC(C)=O)[C@H](C)[C@@H](OC)/C=C/O[C@@]5(C)Oc6c(C)c(O)c(c(c6C5=O)C3=O)C4=O)C(C)C2)c(F)cc2c(=O)c(C(=O)O)cn(C3CC3)c12 (stereo partly shown)', 'MIC', '2 to 32 µg/mL'),
  ('CO[C@H]1/C=C/O[C@@]2(C)Oc3c(C)c(O)c4c(O)c(c(CN5CCN(c6nc7c(cc6F)c(=O)c(C(=O)O)cn7-c6ccc(F)cc6F)CC5)c(O)c4c3C2=O)NC(=O)/C(C)=C\C=C\[C@H](C)[C@H](O)[C@@H](C)[C@@H](O)[C@@H](C)[C@H](OC(C)=O)[C@@H]1C', 'MIC', '2 to 32 µg/mL');
